Consider the following binders; for each one, report its Kd.
tgt: T1, soluble form of the extracellular domain of human CD40 (Creative BioMart) (human, UniProt P25942 21-193)
T1 construct: Bought
assay_details: SPR, Ab captured
Write down the value, and be sure its unit follows.

Qu. Reported Kd, binder huAb8-1 (antibody, human IgG1, V domains shown, human IgG1, kappa) VH: EVQLVQSGAEVKKPGSSVKVSCKASGYTFTDYYINWVRQAPGQGLEWIGWIFPGSGSVYCNEQFKGRATLTVDRSTSTAYMELSSLRSEDTAVYFCASSLGKFAYWGQGTLVTVSS VL: DIQMTQSPSSLSASVGDRVTITCKASQSVVTAVAWYQQKPGKSPKLLIYSASNRYTGVPSRFSGSGSGTDFTLTISSLQPEDFATYFCQQYSSYPYTFGGGTKVEIK : ____
Ans. 3 nM

Qu. Request: AD165.1.2 (antibody, V domains shown, mouse hybridoma antibody; also called muAb5) VH: DVQLQESGPGLVEPSQSLFLTCSVTGYSITTNYNWNWIRQFPGNKLEWMGYIRHDGTNNYNPSLKNRISIIRDTPKNQFFLKLNSVTTEDTAIYFCTRLDYWGQGTSVTVSS VL: DAVMTQTPLSLPVSLGDQASISCRSSQSLENSYGNTFLNWFLQRPGQSPQLLIYRVSNRFCGVPDRFSGSGSGTDFTLKISRVEAEDLGIYFCLQVTHVPYTFGGGTKLEIK
Ans. 0.88 nM
